- tgt: T1, human EphA7 (Homo sapiens, UniProt Q15375)
- T1 construct: a protein of the extracellular region of each human Eph receptor fused with the SEAP protein and the His tag; made in house; host or cells: Expi293F cells (culture supernatant)
- T1 sequence (Q15375 28-555 limits assumed): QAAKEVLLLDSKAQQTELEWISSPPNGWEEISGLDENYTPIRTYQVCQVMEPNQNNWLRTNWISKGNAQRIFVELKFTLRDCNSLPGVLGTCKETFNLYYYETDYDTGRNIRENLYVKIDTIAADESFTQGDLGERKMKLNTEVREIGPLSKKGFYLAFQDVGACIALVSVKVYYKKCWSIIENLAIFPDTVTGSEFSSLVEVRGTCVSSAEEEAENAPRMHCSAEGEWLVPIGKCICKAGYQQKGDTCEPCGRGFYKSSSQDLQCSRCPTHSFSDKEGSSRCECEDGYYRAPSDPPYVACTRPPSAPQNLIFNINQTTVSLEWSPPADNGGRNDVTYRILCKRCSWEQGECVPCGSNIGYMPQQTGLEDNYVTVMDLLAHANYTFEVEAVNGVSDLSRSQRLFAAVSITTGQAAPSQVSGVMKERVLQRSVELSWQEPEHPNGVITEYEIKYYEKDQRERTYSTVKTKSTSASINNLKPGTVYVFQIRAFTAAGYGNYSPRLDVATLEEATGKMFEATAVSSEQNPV
- assay comment: Selectivity ELISA of humanized antibodies for human Eph receptor
- Type: binding
- particulars: coated protein 1 nM
readout type: hEphA7-SEAP-: absorbance at 450 nm, percentage with respect to hEphA4-SEAP-His as 100% (%)

molecule	recorded number
157 (antibody, V domains shown, synthetic humanized antibody heavy chain variable region sequence; synthetic humanized antibody light chain variable region sequence) VH: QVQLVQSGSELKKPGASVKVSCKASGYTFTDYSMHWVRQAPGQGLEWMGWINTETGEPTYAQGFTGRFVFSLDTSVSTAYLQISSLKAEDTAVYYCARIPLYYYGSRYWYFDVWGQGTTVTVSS VL: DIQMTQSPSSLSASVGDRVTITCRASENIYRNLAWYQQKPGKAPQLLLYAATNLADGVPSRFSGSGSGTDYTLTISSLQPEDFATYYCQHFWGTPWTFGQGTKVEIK	6.0
